# System: autoantibodies from patients suffering from rheumatoid arthritis (RA sera)
# assay.comment: ELISA of coated peptides with sera from RA patients
# Format: binding, human
# condition.summary: XG peptide units, cyclic variant, 318 RA sera
Non-standard residues stand in square brackets, D forms with d. No end group written: not given here. Cit = NC(=O)NCCC[C@H](N)C(=O)O
# Sensitivity [%] cyclic values compiled below
Unit % implied. Number only.

H Q R R T Cit G G S R A A (HQRRT[Cit]GGSRAA) [0002-31] : 69
H Q R R V Cit G W S R A A (HQRRV[Cit]GWSRAA) [0002-29] : 70
HQRKW[Cit]GASRAA [0002-32] : 71
H Q K R G Cit G W S R A A (HQKRG[Cit]GWSRAA) [0002-27] : 71

Query block: Query for autoantibodies from patients suffering from rheumatoid arthritis (RA sera): what Sensitivity [%] cyclic does the record show for HQFRF[Cit]GWSRAA [0002-63] ?
Result block: 71
